System: SW 1271 complex spheroids, viability
Experiment Summary: Anticancer human tumor SW 1271 cell line growth inhibition [LSD1];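 further: spheroids exposed to agents for 7 days before luminescence read; 100% = DMSO vehicle control viability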
Reported Conditions: second compound 0.316 µM; first compound 1 µM; stronger effect = lower value
Measurement Label: viability, T/C

INSERT INTO results (compound, measurement_label, result) VALUES
  ('O=C(c1cc(Cc2n[nH]c(=O)c3ccccc23)ccc1F)N1CCN(C(=O)C2CC2)CC1 + NC1CC1c1ccc(-c2cccc(O)c2)cc1', 'viability, T/C', '67.5%'),
  ('CC1COCCN1c1cc(C2(S(C)(=N)=O)CC2)nc(-c2ccnc3[nH]ccc23)n1 (stereo not drawn) + NC1CCC(NC2CC2c2ccccc2)CC1', 'viability, T/C', '81.7%'),
  ('Nc1ncn(C2CC(O)C(CO)O2)c(=O)n1 (stereo not drawn) + NC1CCC(NC2CC2c2ccccc2)CC1', 'viability, T/C', '76.7%'),
  ('O=C(C=Cn1cnc(-c2cc(C(F)(F)F)cc(C(F)(F)F)c2)n1)NNc1cnccn1 + NC1CC1c1ccc(-c2cccc(O)c2)cc1', 'viability, T/C', '19.4%'),
  ('CC1COCCN1c1cc(C2(S(C)(=N)=O)CC2)nc(-c2ccnc3[nH]ccc23)n1 (stereo not drawn) + NC1CC1c1ccc(-c2cccc(O)c2)cc1', 'viability, T/C', '57.1%'),
  ('COc1cc(Nc2ncc3c(n2)-c2ccc(Cl)cc2C(c2c(F)cccc2OC)=NC3)ccc1C(=O)O + NC1CCC(NC2CC2c2ccccc2)CC1', 'viability, T/C', '13.5%'),
  ('COc1ccc([C@@H](O)c2cc(-c3ncnc4cc(N5CCOCC5)ccc34)c(F)cc2Cl)nn1 + NC1CCC(NC2CC2c2ccccc2)CC1', 'viability, T/C', '40.8%'),
  ('CC1COCCN1c1cc(-c2ccnn2C)c2ccnc(-c3ccn[nH]3)c2n1 (stereo not drawn) + NC1CC1c1ccc(-c2cccc(O)c2)cc1', 'viability, T/C', '31%'),
  ('CC1(C)CCC(CN2CCN(c3ccc(C(=O)NS(=O)(=O)c4ccc(NCC5CCOCC5)c([N+](=O)[O-])c4)c(Oc4cnc5[nH]ccc5c4)c3)CC2)=C(c2ccc(Cl)cc2)C1 + NC1CCC(NC2CC2c2ccccc2)CC1', 'viability, T/C', '96.6%'),
  ('COc1cc(Nc2ncc3c(n2)-c2ccc(Cl)cc2C(c2c(F)cccc2OC)=NC3)ccc1C(=O)O + NC1CC1c1ccc(-c2cccc(O)c2)cc1', 'viability, T/C', '13.1%'),
  ('CC1(C)CCC(CN2CCN(c3ccc(C(=O)NS(=O)(=O)c4ccc(NCC5CCOCC5)c([N+](=O)[O-])c4)c(Oc4cnc5[nH]ccc5c4)c3)CC2)=C(c2ccc(Cl)cc2)C1 + NC1CC1c1ccc(-c2cccc(O)c2)cc1', 'viability, T/C', '85.5%'),
  ('COc1ccc([C@@H](O)c2cc(-c3ncnc4cc(N5CCOCC5)ccc34)c(F)cc2Cl)nn1 + NC1CC1c1ccc(-c2cccc(O)c2)cc1', 'viability, T/C', '38%'),
  ('Nc1ncn(C2CC(O)C(CO)O2)c(=O)n1 (stereo not drawn) + NC1CC1c1ccc(-c2cccc(O)c2)cc1', 'viability, T/C', '77.7%');
